Source listed as patent US20250027090.

Molecular target: thrombin (native bovine alpha-thrombin) (Bos taurus) (UniProt P00735+P00735)
Assay: ITC
Conditions: L-DNA (all nucleotides); ~1.7-fold weaker than human thrombin
measured_quantity: pKd
// pKd is dimensionless: -log10 of concentration (M)

Looking up GATGAACTTGTTGAAACCCAACGGGAGAATCGTTCATT [L-9-2t aptamer] , I see its pKd listed as 6.37

----------
Target: thrombin (native human beta-thrombin) (Homo sapiens) (UniProt P00734+P00734)
Test: ITC
Settings: L-DNA (all nucleotides); physiological buffer pH 7.4, 25 C
Assign labels as follows, please: criterion met for Kd below 30 nM; criterion not met for Kd equal to or exceeding 30 nM.

Completed entries (count: 5):
query_sequence	tested_system	qualitative_label
CGGATCCAGTTACGGAACGCGTTTCAAGACTACCGTGTTTGTTCCGTTCATTCAGTAAGCTTCGG [L-9-1 aptamer]	thrombin (native human beta-thrombin) (Homo sapiens) (UniProt P00734+P00734)	criterion met
ACGGAACGCGTTTCAAGACTACCGTGTTTGTTCCGT [L-9-1t aptamer]	thrombin (native human beta-thrombin) (Homo sapiens) (UniProt P00734+P00734)	criterion not met
CGGATCCAGTTACGGATGAACTTGTTGAAACCCAACGGGAGCCTCGTTCATTCAGTAAGCTTCGGTGG [L-13 aptamer]	thrombin (native human beta-thrombin) (Homo sapiens) (UniProt P00734+P00734)	criterion met
GATGAACTTGTTGAAACCCAACGGGAGAATCGTTCATT [L-9-2t aptamer]	thrombin (native human beta-thrombin) (Homo sapiens) (UniProt P00734+P00734)	criterion not met
GATGAACTTGTTGAAACCCAACGGGAGCCTCGTTCATT [L-13t aptamer]	thrombin (native human beta-thrombin) (Homo sapiens) (UniProt P00734+P00734)	criterion not met

Would you kindly look at the next entry?
stdin: Kd under 30 nM? Item: CGGATCCAGTTACGGATGAACTTGTTGAAACCCAACGGGAGAATCGTTCATTCAGTAAGCTTCGG [L-9-2 aptamer]
stdout: criterion not met
